B1: Steroid hormone receptor ERR2, residues 100 to 176; numbered along this chain, O95718 (parent)
chain: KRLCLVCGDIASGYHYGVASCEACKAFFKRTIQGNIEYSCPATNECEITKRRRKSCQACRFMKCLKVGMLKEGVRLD

Variants of: B1
Assay: abundance fitness (aPCA) (normalised: wild type 0, dead -1); higher = more abundant; growth selection in yeast, the domain comes from the species named
Settings: Homo sapiens
readout name: abundance fitness
Provide a numeric answer; units are not to be included.

Field: example entries. Status: answers known.
mutation string: T43I
abundance fitness: -0.065

mutation string: C4G
abundance fitness: -0.696

*Q* Recorded abundance fitness for K1I , please?
*A* -0.45

*Q* Next up: C24M
*A* -0.859

*Q* Try this variant too: R60V
*A* -0.098

*Q* Same for I48G
*A* -0.191

*Q* For C7K then?
*A* -1.19

*Q* Query H15N next
*A* -0.143

*Q* Now this one: K25L
*A* 0.224

*Q* What would you report for Q57R ?
*A* -0.17

*Q* // same read-out, input: Y14E
*A* 0.101

*Q* Param item: F27D
*A* -0.751

*Q* Similarly, I36C ?
*A* -0.037

*Q* Now this one: A58E
*A* -0.235

*Q* Do the same for R2G please
*A* -0.176

*Q* C4L ?
*A* -0.8

*Q* Then H15V ?
*A* -0.369

*Q* Also, F28G please.
*A* -0.687

*Q* // repeat for N44S and report
*A* -0.127

*Q* Param item: F28N
*A* -0.922

*Q* Here is the next variant: F27V
*A* -0.535

*Q* How about this variant: C7N
*A* -0.635

*Q* What do you have for S12Q ?
*A* 0.115
